FYI, the data here is from paper PMC4420653.

Experiment: WIN 18,446 pharmacokinetics in mice
Assay type: in vivo, mouse
Settings: eight daily doses 125 mg/kg po, mice
RESULT TYPE: Cmax (µM)
Please respond with the number in µM and leave the unit unwritten.

I would be grateful if you could share the reported Cmax for O=C(NCCCCCCCCNC(=O)C(Cl)Cl)C(Cl)Cl [WIN 18,446] .
8.5

====

Assay: WIN 18,446 pharmacokinetics in mice
Type: in vivo, mouse
Settings: single dose 125 mg/kg po, mice
RESULT TYPE: Cmax (nM)
Please respond with the number in nM and leave the unit unwritten.

I would be grateful if you could share the reported Cmax for `O=C(NCCCCCCCCNC(=O)C(Cl)Cl)C(Cl)Cl` .
1300

====

Assay: Tissue half-life of atRA from concentration-time curves after WIN 18,446
Format: in vivo
Conditions: C57BL/6-129, mouse, testis, po, 125 mg/kg
RESULT TYPE: half-life

I would be grateful if you could share the reported half-life for CC1=C(/C=C/C(C)=C/C=C/C(C)=C/C(=O)O)C(C)(C)CCC1 [atRA, all-trans retinoic acid] .
1.3 h

====

Assay: Tissue half-life of atRA from concentration-time curves after WIN 18,446
Assay type: in vivo
Settings: C57BL/6-129, mouse, serum, po, 125 mg/kg
RESULT TYPE: half-life (min)
Please respond with the number in min and leave the unit unwritten.

I would be grateful if you could share the reported half-life for CC1=C(/C=C/C(C)=C/C=C/C(C)=C/C(=O)O)C(C)(C)CCC1 [atRA, all-trans retinoic acid] .
30

====

Assay: Tissue half-life of atRA from concentration-time curves after WIN 18,446
Type: in vivo
Conditions: C57BL/6-129, mouse, liver, po, 125 mg/kg
RESULT TYPE: half-life

I would be grateful if you could share the reported half-life for CC1=C(/C=C/C(C)=C/C=C/C(C)=C/C(=O)O)C(C)(C)CCC1 [atRA, all-trans retinoic acid] .
< 30 min
